# particulars: in acetonitrile, 333.15 K
readout name: solubility (mole fraction)
Respond using a number only.

Consider the molecule "Cc1c(C(=O)O)cc([N+](=O)[O-])cc1[N+](=O)[O-]" and give its measured solubility (mole fraction).
0.0341

---

# particulars: in n-pentanol, 288.15 K
readout name: solubility (mole fraction)
Respond using a number only.

Consider the molecule "Cc1c(C(=O)O)cc([N+](=O)[O-])cc1[N+](=O)[O-]" and give its measured solubility (mole fraction).
0.012

---

# particulars: in water, 328.15 K
readout name: solubility (mole fraction)
Respond using a number only.

Consider the molecule "Cc1c(C(=O)O)cc([N+](=O)[O-])cc1[N+](=O)[O-]" and give its measured solubility (mole fraction).
0.000171

---

# particulars: in isopropanol, 308.15 K
readout name: solubility (mole fraction)
Respond using a number only.

Consider the molecule "Cc1c(C(=O)O)cc([N+](=O)[O-])cc1[N+](=O)[O-]" and give its measured solubility (mole fraction).
0.0202

---

# particulars: in acetonitrile, 318.15 K
readout name: solubility (mole fraction)
Respond using a number only.

Consider the compound "Cc1c(C(=O)O)cc([N+](=O)[O-])cc1[N+](=O)[O-]" and give its measured solubility (mole fraction).
0.0209

---

# particulars: in toluene, 323.15 K
readout name: solubility (mole fraction)

Consider the compound "Cc1c(C(=O)O)cc([N+](=O)[O-])cc1[N+](=O)[O-]" and give its measured solubility (mole fraction).
0.0493

---

# particulars: in isopropanol, 298.15 K
readout name: solubility (mole fraction)
Respond using a number only.

Consider the compound "Cc1c(C(=O)O)cc([N+](=O)[O-])cc1[N+](=O)[O-]" and give its measured solubility (mole fraction).
0.0147

---

# particulars: in water, 313.15 K
readout name: solubility (mole fraction)
Respond using a number only.

Consider the compound "Cc1c(C(=O)O)cc([N+](=O)[O-])cc1[N+](=O)[O-]" and give its measured solubility (mole fraction).
7.99e-05

---

# particulars: in n-heptanol, 293.15 K
readout name: solubility (mole fraction)
Respond using a number only.

Consider the compound "Cc1c(C(=O)O)cc([N+](=O)[O-])cc1[N+](=O)[O-]" and give its measured solubility (mole fraction).
0.0146

---

# particulars: in isopropanol, 328.15 K
readout name: solubility (mole fraction)

Consider the molecule "Cc1c(C(=O)O)cc([N+](=O)[O-])cc1[N+](=O)[O-]" and give its measured solubility (mole fraction).
0.0384

---

# particulars: in acetonitrile, 288.15 K
readout name: solubility (mole fraction)
Respond using a number only.

Consider the compound "Cc1c(C(=O)O)cc([N+](=O)[O-])cc1[N+](=O)[O-]" and give its measured solubility (mole fraction).
0.0071

---

# particulars: in n-hexanol, 288.15 K
readout name: solubility (mole fraction)
Respond using a number only.

Consider the compound "Cc1c(C(=O)O)cc([N+](=O)[O-])cc1[N+](=O)[O-]" and give its measured solubility (mole fraction).
0.00982

---

# particulars: in n-butanol, 298.15 K
readout name: solubility (mole fraction)
Respond using a number only.

Consider the compound "Cc1c(C(=O)O)cc([N+](=O)[O-])cc1[N+](=O)[O-]" and give its measured solubility (mole fraction).
0.0152

---

# particulars: in acetonitrile, 328.15 K
readout name: solubility (mole fraction)
Respond using a number only.

Consider the compound "Cc1c(C(=O)O)cc([N+](=O)[O-])cc1[N+](=O)[O-]" and give its measured solubility (mole fraction).
0.0292

---

# particulars: in n-heptanol, 333.15 K
readout name: solubility (mole fraction)
Respond using a number only.

Consider the compound "Cc1c(C(=O)O)cc([N+](=O)[O-])cc1[N+](=O)[O-]" and give its measured solubility (mole fraction).
0.0524

---

# particulars: in acetonitrile, 323.15 K
readout name: solubility (mole fraction)

Consider the compound "Cc1c(C(=O)O)cc([N+](=O)[O-])cc1[N+](=O)[O-]" and give its measured solubility (mole fraction).
0.0248

---

# particulars: in cyclohexane, 298.15 K
readout name: solubility (mole fraction)
Respond using a number only.

Consider the compound "Cc1c(C(=O)O)cc([N+](=O)[O-])cc1[N+](=O)[O-]" and give its measured solubility (mole fraction).
2.69e-05

---

# particulars: in cyclohexane, 313.15 K
readout name: solubility (mole fraction)
Respond using a number only.

Consider the compound "Cc1c(C(=O)O)cc([N+](=O)[O-])cc1[N+](=O)[O-]" and give its measured solubility (mole fraction).
6.37e-05

---

# particulars: in ethyl acetate, 298.15 K
readout name: solubility (mole fraction)

Consider the molecule "Cc1c(C(=O)O)cc([N+](=O)[O-])cc1[N+](=O)[O-]" and give its measured solubility (mole fraction).
0.0312

---

# particulars: in water, 308.15 K
readout name: solubility (mole fraction)
Respond using a number only.

Consider the molecule "Cc1c(C(=O)O)cc([N+](=O)[O-])cc1[N+](=O)[O-]" and give its measured solubility (mole fraction).
5.87e-05

---

# particulars: in sec-butanol, 298.15 K
readout name: solubility (mole fraction)
Respond using a number only.

Consider the compound "Cc1c(C(=O)O)cc([N+](=O)[O-])cc1[N+](=O)[O-]" and give its measured solubility (mole fraction).
0.0158

---

# particulars: in acetonitrile, 293.15 K
readout name: solubility (mole fraction)
Respond using a number only.

Consider the compound "Cc1c(C(=O)O)cc([N+](=O)[O-])cc1[N+](=O)[O-]" and give its measured solubility (mole fraction).
0.0084

---

# particulars: in ethanol, 288.15 K
readout name: solubility (mole fraction)

Consider the molecule "Cc1c(C(=O)O)cc([N+](=O)[O-])cc1[N+](=O)[O-]" and give its measured solubility (mole fraction).
0.0467

---

# particulars: in n-butanol, 303.15 K
readout name: solubility (mole fraction)

Consider the molecule "Cc1c(C(=O)O)cc([N+](=O)[O-])cc1[N+](=O)[O-]" and give its measured solubility (mole fraction).
0.0179

---

# particulars: in n-heptanol, 328.15 K
readout name: solubility (mole fraction)
Respond using a number only.

Consider the molecule "Cc1c(C(=O)O)cc([N+](=O)[O-])cc1[N+](=O)[O-]" and give its measured solubility (mole fraction).
0.0458

---

# particulars: in ethyl acetate, 308.15 K
readout name: solubility (mole fraction)
Respond using a number only.

Consider the molecule "Cc1c(C(=O)O)cc([N+](=O)[O-])cc1[N+](=O)[O-]" and give its measured solubility (mole fraction).
0.041

---

# particulars: in cyclohexane, 308.15 K
readout name: solubility (mole fraction)
Respond using a number only.

Consider the compound "Cc1c(C(=O)O)cc([N+](=O)[O-])cc1[N+](=O)[O-]" and give its measured solubility (mole fraction).
4.87e-05

---

# particulars: in ethyl acetate, 333.15 K
readout name: solubility (mole fraction)
Respond using a number only.

Consider the molecule "Cc1c(C(=O)O)cc([N+](=O)[O-])cc1[N+](=O)[O-]" and give its measured solubility (mole fraction).
0.0781

---

# particulars: in n-heptanol, 313.15 K
readout name: solubility (mole fraction)
Respond using a number only.

Consider the compound "Cc1c(C(=O)O)cc([N+](=O)[O-])cc1[N+](=O)[O-]" and give its measured solubility (mole fraction).
0.0295

---

# particulars: in n-hexanol, 303.15 K
readout name: solubility (mole fraction)
Respond using a number only.

Consider the compound "Cc1c(C(=O)O)cc([N+](=O)[O-])cc1[N+](=O)[O-]" and give its measured solubility (mole fraction).
0.0151

---

# particulars: in n-hexanol, 313.15 K
readout name: solubility (mole fraction)
Respond using a number only.

Consider the molecule "Cc1c(C(=O)O)cc([N+](=O)[O-])cc1[N+](=O)[O-]" and give its measured solubility (mole fraction).
0.0208

---

# particulars: in ethanol, 323.15 K
readout name: solubility (mole fraction)

Consider the molecule "Cc1c(C(=O)O)cc([N+](=O)[O-])cc1[N+](=O)[O-]" and give its measured solubility (mole fraction).
0.11

---

# particulars: in n-heptanol, 288.15 K
readout name: solubility (mole fraction)
Respond using a number only.

Consider the molecule "Cc1c(C(=O)O)cc([N+](=O)[O-])cc1[N+](=O)[O-]" and give its measured solubility (mole fraction).
0.0128

---

# particulars: in n-heptanol, 318.15 K
readout name: solubility (mole fraction)
Respond using a number only.

Consider the compound "Cc1c(C(=O)O)cc([N+](=O)[O-])cc1[N+](=O)[O-]" and give its measured solubility (mole fraction).
0.0341

---

# particulars: in sec-butanol, 328.15 K
readout name: solubility (mole fraction)
Respond using a number only.

Consider the molecule "Cc1c(C(=O)O)cc([N+](=O)[O-])cc1[N+](=O)[O-]" and give its measured solubility (mole fraction).
0.0405

---

# particulars: in ethyl acetate, 313.15 K
readout name: solubility (mole fraction)
Respond using a number only.

Consider the molecule "Cc1c(C(=O)O)cc([N+](=O)[O-])cc1[N+](=O)[O-]" and give its measured solubility (mole fraction).
0.0467
